All values here come from PubChem BioAssay (NCI).

test system: CAKI-1 renal; test: NCI tumour cell line growth inhibition, 48 h
Give measured TGI for each item. Keep answers brief.

(Q) Tell me the measured TGI of O=C(Nc1ccc(Cl)cc1F)c1ccccc1O , please.
(A) 13.6 µM

(Q) Can you share its TGI? I mean this molecule: N#Cc1c(-c2ccc(Cl)cc2)c2c([nH]c1=O)-c1ccccc1SC2
(A) > 100 µM

(Q) // returns reported TGI for input Cc1cc2c(cc1Cl)SC(NS(=O)(=O)c1ccc(Cl)cc1)=NS2(=O)=O
(A) > 100 µM

(Q) Item under review: CCN(CC)CCC(=O)/C=C/c1ccccc1 . Reported TGI?
(A) 14.1 µM

(Q) Need TGI of NC(=O)NC1C(c2ccccc2)=C1c1ccccc1 , thanks.
(A) > 100 µM

(Q) Please report the recorded TGI for COc1cc([C@H]2Oc3cc(O)c4c(=O)cc(-c5ccccc5)oc4c3O[C@@H]2CO)ccc1O .
(A) 79.1 µM

(Q) # input molecule: CC(C)c1ccccc1NC(=O)CCc1n[nH]c(=S)o1 ; wanted: its TGI
(A) > 100 µM

(Q) For the molecule C=C1CC[C@@H]2[C@](C)(COC(C)=O)[C@H](OC(C)=O)CC[C@@]2(C)[C@@H]1CC(Sc1ccccc1)C1=CCOC1=O (some centres not stated) , what TGI is on record?
(A) 11.5 µM

(Q) What measured TGI goes with Cc1cc(I)cc(CN(C)CCCN2CCCCCCC2)c1O ?
(A) 28 µM

(Q) Look up TGI: CC(O)CCC(=O)c1ccoc1 (configuration not stated)
(A) 3930 µM

(Q) Please report the recorded TGI for CC(=O)c1ccc(NCc2cc(O)ccc2O)cc1 .
(A) 34.6 µM

(Q) Please give the measured TGI for this molecule: COc1ccc2c(c1)CCCC(Br)C2=O (configuration not stated)
(A) 9.45 µM

(Q) Any idea what its TGI is? The molecule is COc1cc(C#CC(=O)OC/C=C/c2ccc3c(c2)OCO3)cc(OC)c1OC
(A) 57 µM

(Q) Request the reported TGI associated with CC1(C)CC(=O)c2[nH]c3ccccc3c2CC(=O)NCCc2cn1cn2
(A) > 100 µM

(Q) I'd like to know its TGI. The molecule in question is C1C2CC3CC1CC(Nc1nc(NC45CC6CC(CC(C6)C4)C5)nc(NC45CC6CC(CC(C6)C4)C5)n1)(C2)C3
(A) > 100 µM

(Q) Any idea what its TGI is? The molecule is NC(=Nc1c([N+](=O)[O-])cnc2ccccc12)N1CCOCC1
(A) > 100 µM

(Q) TGI for CC(=O)N(C)c1ccc(Nc2cc(C)[nH]c3ccc4ncnc4c23)cc1 ?
(A) 23.8 µM

(Q) Can you look up the measured TGI of COC(=O)C1=C(O)c2cc(OC)c(OC)cc2C(c2ccc(OC)c(OC)c2)C1 (configuration not stated) for me?
(A) > 100 µM

(Q) # get_value(readout='TGI', item= CCC[CH2][Sn]1([CH2]CCC)[O]N=C(c2ccccc2)C(c2ccccc2)[O]1 (configuration not stated) )
(A) 2.4 µM

(Q) Quick check: TGI of N=C1/C(=C/c2ccc(F)cc2)C(=O)N=C2SC=NN12 ?
(A) > 100 µM

(Q) Quick check: TGI of C=C1C(=O)OC2CCN3CC=C(COC(=O)C(C)(O)C4(CO4)C1C)C23 (configuration not stated) ?
(A) > 100 µM

(Q) // returns reported TGI for input FC(F)(F)c1ccc(N=C/C=C(/Nc2ccc(C(F)(F)F)cc2)c2ccc(Cl)cc2)cc1
(A) 19.6 µM

###

system: LOX IMVI melanoma; assay: NCI tumour cell line growth inhibition, 48 h
Can you tell me GI50 for the items I'm about to list?

(Q) Looking for the measured GI50 of C=C(CNCc1ccccc1)c1ccc(C(=O)Nc2ccccc2N)cc1 , can you help?
(A) 2450 nM

(Q) Could you share which GI50 value was measured for CC(C)c1ccc2c(c1)CC[C@@H]1[C@@](C)(C(=O)O)CCC[C@]21C ?
(A) 3430 nM

(Q) What value of GI50 has been reported for the following compound? O=C(OC(CNc1cc(=O)n(Cc2ccccc2)c(=O)n1Cc1ccccc1)CN1CCCC1)c1ccccc1 (stereo not given)
(A) > 100000 nM

(Q) # query: GI50 of entry CCOC(=O)CCCn1c(SC)nc2[nH]cc(-c3ccccc3)c2c1=O
(A) 11300 nM

(Q) What measured GI50 goes with CCN(CC)CCOc1ccc(-c2nc3cc(Cl)ccc3s2)cc1 ?
(A) 1390 nM

(Q) Any idea what GI50 was measured for CN1CCN(CCOc2ccc(-c3cnc4c(-c5ccccc5F)cnn4c3)cc2)CC1 ?
(A) 1810 nM

(Q) Consider the compound CCC[CH2][Sn]1([CH2]CCC)[O]N=C(c2ccccc2)C(c2ccccc2)[O]1 (stereo not given) and give its measured GI50.
(A) 1380 nM

(Q) Which GI50 is listed for N#Cc1c(NN)n(C2OC(CO)C(O)C2O)c2ncnc(N)c12 (stereo not given) ?
(A) 51.3 nM

(Q) Quick check: GI50 of CCCCCCNC(=O)c1cc(NCc2cc(O)ccc2O)ccc1O ?
(A) 6840 nM

(Q) I would be grateful if you could share the reported GI50 for [Cl][Hg][c]1cc(Br)cc(Br)c1 .
(A) 1410 nM

###

Please respond with reported GI50 for every item in the list.
test system: OVCAR-4 ovarian; assay: NCI tumour cell line growth inhibition, 48 h

(Q) Provide the documented GI50 with OVCAR-4 ovarian as the system for CC(C)=CCNc1ncnc2c1ncn2C1OC(CO)C(O)C1O (stereo not given)
(A) 0.793 µM

(Q) Identify the measured GI50 of Clc1nc2ccccc2nc1CI for OVCAR-4 ovarian.
(A) 5.34 µM

(Q) Lab note: need GI50 with OVCAR-4 ovarian for entry CN(C)CCCNC(=O)c1cc2[nH]c3c(cnc4ccc([N+](=O)[O-])cc43)c(=O)c2n1C , please look it up.
(A) 14 µM

(Q) Record lookup: for OVCAR-4 ovarian, what GI50 belongs to O=C(OC(CNc1cc(=O)n(Cc2ccccc2)c(=O)n1Cc1ccccc1)CN1CCCC1)c1ccccc1 (stereo not given) ?
(A) > 100 µM

(Q) Reported GI50 for OVCAR-4 ovarian, given COc1cc2nc(-c3ccc(Cl)cc3)cc(OCCCN3CCCCC3)c2cc1OC ?
(A) 3.85 µM

###

test system: DU-145 prostate; assay: NCI tumour cell line growth inhibition, 48 h; in the data active = GI50 below about 0.43 µM; inactive = the rest
Write down one outcome, taken from active, inactive

(Q) Could you please tell me the result logged for C=C(CNCc1ccccc1)c1ccc(C(=O)Nc2ccccc2N)cc1 in this assay?
(A) inactive

(Q) Please let me know the test result on file for Clc1nc2ccccc2nc1CI .
(A) inactive

(Q) Per the records of this test, what outcome belongs to N#Cc1c(NN)n(C2OC(CO)C(O)C2O)c2ncnc(N)c12 (stereo unspecified) ?
(A) active

(Q) Could you check what this test reported for COc1cc2nc(-c3ccc(Cl)cc3)cc(OCCCN3CCCCC3)c2cc1OC ?
(A) inactive

(Q) // outcome(item) with item = COc1cnc2c(c1)C(=O)c1c-2n(CCCNC(C)C)c(=O)c2cc(Cl)ccc12
(A) active

(Q) Entry O=C1/C(=C/c2ccc(Br)cc2)COc2ccc(O)c(O)c21 : call = ?
(A) inactive

(Q) Would you mind telling me which call this test gave COc1cc(C2CC(c3cccc(Br)c3)=NN2C(C)=O)cc(OC)c1OC (stereo unspecified) ?
(A) active

(Q) Which outcome was entered for the compound CCOC(=O)CCCn1c(SC)nc2[nH]cc(-c3ccccc3)c2c1=O in this test?
(A) inactive

(Q) What call does the record list for O=C(Nc1ccc(Cl)cc1F)c1ccccc1O ?
(A) inactive

(Q) // outcome(item) with item = CC(C)CCN1c2nc(Nc3cc(F)c(O)c(F)c3)ncc2N(C)C(=O)C1C (stereo unspecified)
(A) inactive

(Q) Hey, what did the test say about CCC(C)n1ncn(-c2ccc(N3CCN(c4ccc(OCC5COC(Cn6cncn6)(c6ccc(Cl)cc6Cl)O5)cc4)CC3)cc2)c1=O (stereo unspecified) ?
(A) inactive

###

test system: SF-295 CNS; assay: NCI tumour cell line growth inhibition, 48 h; in the data active = GI50 below about 0.43 µM; inactive = the rest
Choose one outcome from this list and give only that: 1.0 for active, 0.0 for inactive

(Q) Name the outcome recorded for C=C1CC[C@@H]2[C@](C)(COC(C)=O)[C@H](OC(C)=O)CC[C@@]2(C)[C@@H]1CC(Sc1ccccc1)C1=CCOC1=O (stereo not given in full) in the assay.
(A) 0.0

(Q) Each molecule tested received a call. Report the one for Cn1nc(N)c2cc([C@@H]3Nc4ccc5[nH]ncc5c4[C@H]4C5CCC(C5)[C@@H]34)ccc21 (stereo not given in full) .
(A) 1.0

(Q) Answer briefly: the call reported for O=C(CNc1ccc(Cl)cc1)Nc1ccc(-c2nc3ccccc3s2)cc1 in this assay.
(A) 0.0

(Q) Query: recorded result category for O=C(Cc1ccc(/C=C/C(=O)c2ncc[nH]2)cc1)Nc1cc(F)c(F)c(F)c1 in this test
(A) 0.0

(Q) I would be grateful if you could indicate the recorded call for Cc1cc(I)cc(CN(C)CCCN2CCCCCCC2)c1O .
(A) 0.0

(Q) In this assay, the call recorded for C=C1C(=O)O[C@@H]2C[C@@H]1CC/C(C)=C/CC/C(C)=C/CC[C@@]2(C)O was what?
(A) 0.0

(Q) Dear colleague, could you share the recorded outcome for [Cl][Hg][c]1cc(Br)cc(Br)c1 when you have a moment?
(A) 0.0

(Q) Dear colleague, could you share the recorded outcome for CCN(CC)c1ccc2c(c1)OC(N)=C(C#N)C2c1cc(OC)c2c(c1)OCO2 (stereo not given) when you have a moment?
(A) 1.0

(Q) Fill in: this test's call for O=C(OC(CNc1cc(=O)n(Cc2ccccc2)c(=O)n1Cc1ccccc1)CN1CCCC1)c1ccccc1 (stereo not given) is ___
(A) 0.0

(Q) Test call for this molecule, please: COc1cc2nc(-c3ccc(Cl)cc3)cc(OCCCN3CCCCC3)c2cc1OC
(A) 0.0
